meta.source: the RNAGym collection of RNA variant scans (doi:10.7554/elife.90254)

B1: LINE1-full (parent)
chain: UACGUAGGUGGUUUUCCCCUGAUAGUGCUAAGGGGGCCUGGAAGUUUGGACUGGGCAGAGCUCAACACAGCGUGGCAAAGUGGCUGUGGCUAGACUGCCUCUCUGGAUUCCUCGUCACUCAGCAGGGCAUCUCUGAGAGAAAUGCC

variants of: B1; assay: self-cleavage, relative activity (ratio to wild type); higher = more cleavage; in vitro, sequencing; the parent is a self-cleaving ribozyme

variant spec	self-cleavage
G70C U112C	0.14
G105U A117G	1.74
A77G C145A	2.43
U12G U119A	1.32
A22U U52C	1.73
G58U A64U	0.05
U9C G137A	1.15
U46C U119G	1.02
G58A A77G	0.06
C110U A124G	0.82
U23C U115C	1.16
C28A G88A	0
U15A A77U	0.98
A78U G114A	1.75
G25U U45G	0.93
A31U U39C	0.73
A64C U130C	0
A6G A141G	1.03
U39A U85C	0.19
U52C A107G	1
A79G C120U	1.26
A65U U91G	0.06
